# System: SNB-19
# procedure text: NCI tumour cell line growth inhibition, 48 h
Calls of active or inactive are those of the source. No stated cut-off is given here; in the data, active = GI50 up to about 1.1 µM and inactive = higher.
Bench note: report the call from active, inactive

# example entries with known answers
[[record]]
compound = "CC(=O)/C(=C\\c1ccccc1O)C(=O)Nc1ccccc1C"
assigned_class = "inactive"

[[record]]
compound = "CCC1(O)CC(OC2CC(N(C)C)C(OC3CC(O)C(OC4OC(C)C(=O)C=C4N)C(C)O3)C(C)O2)c2c(O)c3c(c(O)c2C1C(=O)OC)C(=O)c1cccc(O)c1C3=O (stereo not given)"
assigned_class = "active"

[[record]]
compound = "CC(C)(C)c1cc(/C=C/C(=O)CC(=O)/C=C/c2cc(C(C)(C)C)c(O)c(C(C)(C)C)c2)cc(C(C)(C)C)c1O"
assigned_class = "inactive"

[[record]]
compound = "[N-]=[N+]=Nc1ccc(NCCCCCC(=O)ON2C(=O)CCC2=O)c([N+](=O)[O-])c1"
assigned_class = "inactive"


For CSc1nc(NC2OC(COC(C)=O)C(OC(C)=O)C(OC(C)=O)C2OC(C)=O)c2c(OC(C)=O)c(C)c(=O)oc2n1 (stereo not given) , what call appears in the results of this test?
inactive

Source of measurements: ChEMBL document CHEMBL1201862
